target_desc: T1, human CD20 (human, UniProt P11836 1-297)
T1 construct: whole, on cells; Always presented on cells; also called MS4A1; CD20 WT
T1 sequence (looked up): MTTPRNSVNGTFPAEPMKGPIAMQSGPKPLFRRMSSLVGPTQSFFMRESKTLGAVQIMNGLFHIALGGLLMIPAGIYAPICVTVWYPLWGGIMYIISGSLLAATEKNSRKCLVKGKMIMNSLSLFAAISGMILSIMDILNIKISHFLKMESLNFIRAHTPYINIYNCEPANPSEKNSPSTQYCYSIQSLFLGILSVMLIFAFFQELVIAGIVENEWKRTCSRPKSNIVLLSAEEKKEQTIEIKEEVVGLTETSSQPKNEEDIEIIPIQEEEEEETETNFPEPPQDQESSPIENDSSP
assay_protocol: LigandTracer Green, 10 nM FITC-labeled mAb on SKBR3-CD20 cells, OneToOne fit, competitive dissociation (100 nM unlabeled mAb of the same clone)
measure: koff (s⁻¹)
Respond numerically; units are s⁻¹ and should not be typed.

Challenge: Name the reported koff value associated with the binder m2 (mIgG2c-CD20 mAb) (antibody, V domains shown, FITC- or Alexa647-labelled in the kinetic assays; label sites not given, Mouse IgG2c hybridoma mAb; FITC- or Alexa647-labeled in the kinetic assays) VH: QAYLQQSGAELVRPGASVKMSCKASGYTFTSYNMHWVKQTPRQGLEWIGGIYPGNGDTSYNQKFKGKATLTVDKSSSTAYMQLSSLTSEDSAVYFCARYYYGSSYGAMDYWGQGTSVTVSS VL: QIVLSQSPAILSASPGEKVTMTCRASSSVSYMHWYQQKPGSSPKPWIYATSNLASGVPARFSGSGSGTSYSLTISRVEAADAATYYCHQWTFNPPTFGGGTKLEIK
Response given: 7.8e-05

Challenge: And m1 (mIgG2c-CD20 mAb) (antibody, V domains shown, FITC- or Alexa647-labelled in the kinetic assays; label sites not given, Mouse IgG2c hybridoma mAb; FITC- or Alexa647-labeled in the kinetic assays) VH: QAYLQQSGAELVRPGASVKMSCKASGYTFTSYNLHWVKQTPRQGLEWIGAIYPGNGDTSYNQKFKGKATLTVDKSSSTAYMQLSRLTSEDSAVYFCARSNSYGSTYWYFDVWGTGTTVTVSS VL: QIVLSQSPAVLFASPGEKVTMTCRARSSVSYMDWYQQKPRSSPKPWIYATSNLASGVPARFSGSGSGTSYSLTISRVEAEDAATYYCQQWTSNPPTFGSGTKLEIK ?
Response given: 6.92e-05

Challenge: And m9 (mIgG2c-CD20 mAb) (antibody, V domains shown, FITC-labelled antibody in the LigandTracer assay; the label positions are not defined., Mouse IgG2c hybridoma mAb; FITC-labeled in LigandTracer) VH: QAYLQQSGAELVRPGASVKMSCKASGYTFPSYNMHWVKQTPRQGLEWIGAIYPGNGDTSYNQKFKGKASQTVDKSSSTVYMQLSSLTSADSAVYFCARSRLFDSSYGWYFDVWGTGTTVTVSS VL: QIVLSQSPAILSAYPGEKVTMTCRARSSVSYIDWYQQKAGSSPKPWIYATSNLASGVPARFSGSGSGTSYSLTISRVEAEDAATYYCQQWTSNPPTFGGGTKLEIK ?
Response given: 6.53e-06

Challenge: And m10 (mIgG2c-CD20 mAb) (antibody, V domains shown, FITC-labelled in the LigandTracer assay; label sites not given, Mouse IgG2c hybridoma mAb; FITC-labeled in LigandTracer) VH: QAYLQQSGADLVRPGASVKMSCKASGFTFPSYNLHWVKQTPRQGLEWIGAIYPGNGDTSYNQKFKGKATLTVDKSSSTAYMQLSSLTSEDSAVYFCARSAYYGSNVWFFDVWGTGTTVTVSS VL: QIVLSQSPAILSASPGEKVTMTCRASSSVSYMDWYQQKPGSSPKPWIYATSNLASGVPTRFSGSGSGTSYSLTISRVEAEDAATYYCQQWISNPPTFGAGTKLDLK ?
Response given: 2.82e-05
